Target: T1, N-terminal domain of hCD73 (residues 26-336 of human CD73), His-tagged (human, UniProt P21589 26-336)
T1 construct: also called N-hCD73; N-hCD73-his
T1 sequence: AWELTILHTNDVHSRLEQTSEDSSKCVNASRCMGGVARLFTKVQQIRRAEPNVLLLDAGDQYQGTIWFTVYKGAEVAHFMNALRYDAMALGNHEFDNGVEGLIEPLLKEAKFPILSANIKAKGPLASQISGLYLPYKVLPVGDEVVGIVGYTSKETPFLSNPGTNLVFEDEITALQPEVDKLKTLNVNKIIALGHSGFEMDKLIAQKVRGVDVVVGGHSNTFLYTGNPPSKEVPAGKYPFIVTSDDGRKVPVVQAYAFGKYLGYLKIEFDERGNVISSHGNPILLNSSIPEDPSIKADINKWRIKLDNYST
Test: SPR, mAb captured on protein A
measured.attribute: Kd

-- ask Which value of Kd has been reported for 11A6 (antibody, human IgG1, kappa, V domains shown, IgG1za from hybridoma; also called 11A6-1) VH: EVQLVESGGNLVQPGRSLRLSCAASGFTFDDYAMHWVRQAPGKGLEWVSGISWNNNDIGYADSVKGRFIISRDNAKNSLYLQMNSLRPEDTALYYCVKGYYVILTGLDYWGQGTPVTVSS VL: DIQMTQSPSSLSASVGDRVTITCRASQGISSWLAWYQQKPEKAPKSLIYAASSLQSGVPSRFSGSGSGTDFTLTISSLQPEDFATYYCQQYNSYPLTFGGGTKVEIKR in the records?
-- reply 140 nM

Cited source for all entries: patent US20230051701A1
